# testProtocol: Cytotoxicity against human MDA-MB-231 cells after 72 hrs
# Type: cell-based
Consider the following compounds; for each one, report its GI50 at 72 h.
Record the value in µM, omitting the unit from your answer.

## Input Please give the measured GI50 at 72 h for this compound: NC(=O)CN(CCC(c1ccccc1)c1ccccc1)C(=O)CN(CCC(c1ccccc1)c1ccccc1)C(=O)CNCC1CCCO1 (centres undefined)
## Output 2.72

## Input Please give the measured GI50 at 72 h for this compound: O=C(CNCCC(c1ccccc1)c1ccccc1)NCCC(c1ccccc1)c1ccccc1
## Output 3.46

## Input Please give the measured GI50 at 72 h for this compound: COc1ccc(CCN(CC(=O)NCCC(c2ccccc2)c2ccccc2)C(=O)CNCCC(c2ccccc2)c2ccccc2)cc1
## Output 1.02

## Input Please give the measured GI50 at 72 h for this compound: COc1ccc(CCNCC(=O)NCCC(c2ccccc2)c2ccccc2)cc1
## Output 2.73
